tested-system: KRAS WT (Homo sapiens, UniProt P01116+P62937)
Sequence (P01116 1-169 isoform P01116-2 limits assumed): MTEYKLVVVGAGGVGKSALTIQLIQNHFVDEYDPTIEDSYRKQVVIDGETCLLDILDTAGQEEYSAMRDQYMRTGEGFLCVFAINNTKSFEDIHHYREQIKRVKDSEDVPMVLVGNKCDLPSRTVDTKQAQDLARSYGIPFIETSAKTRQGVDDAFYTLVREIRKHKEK
Sequence (P62937 whole entry): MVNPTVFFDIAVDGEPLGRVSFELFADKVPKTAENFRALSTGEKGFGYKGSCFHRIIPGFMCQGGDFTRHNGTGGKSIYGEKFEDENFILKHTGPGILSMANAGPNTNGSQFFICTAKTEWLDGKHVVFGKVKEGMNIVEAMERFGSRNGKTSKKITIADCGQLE
assay-text: Ras-Raf disruption / FRET / MOA assay (BRAF RBD)
Format: biochemical
condition: KRAS WT FRET data IC50, Ras-Raf disruption, with Cyclophilin A
pIC50: −log10 of the molar value.
measured-metric: pIC50

[[record]]
compound = "CCn1c(-c2cccnc2[C@H](C)OC)c2c3cc(ccc31)-c1cc(O)cc(c1)C[C@H](NC(=O)[C@H](C(C)C)N(C)C(=O)C13CC(CN1C(=O)[C@@H]1CN1)C3)C(=O)N1CCC[C@H](N1)C(=O)OCC(C)(C)C2"
measured_metric = "pIC50"
test_result = "6.00 to 7.00"

[[record]]
compound = "CCn1c(-c2cccnc2[C@H](C)OC)c2c3cc(ccc31)-c1cc(O)cc(c1)C[C@H](NC(=O)[C@H](C1CCCC1)N(C)C(=O)CN(C)C(=O)[C@@H]1N[C@@H]1C1(C#N)CC1)C(=O)N1CCC[C@H](N1)C(=O)OCC(C)(C)C2 (single isomer, unassigned)"
measured_metric = "pIC50"
test_result = "7.00 to 8.00"

[[record]]
compound = "CCn1c(-c2cccnc2[C@H](C)OC)c2c3cc(ccc31)-c1csc(n1)C[C@H](NC(=O)[C@H](C1CCCC1)N(C)C(=O)CN(C)C(=O)[C@@H]1N[C@@H]1C1CC1)C(=O)N1CCC[C@H](N1)C(=O)OCC(C)(C)C2"
measured_metric = "pIC50"
test_result = "5.00 to 6.00"

[[record]]
compound = "CCn1c(-c2cccnc2[C@H](C)OC)c2c3cc(ccc31)-c1cc(cc(C(F)F)c1)C[C@H](NC(=O)[C@H](C1CCCC1)N(C)C(=O)CN(C)C(=O)[C@@H]1N[C@@H]1C1CC1)C(=O)N1CCC[C@H](N1)C(=O)OCC(C)(C)C2"
measured_metric = "pIC50"
test_result = "5.00 to 6.00"

[[record]]
compound = "CCn1c(-c2cccnc2[C@H](C)OC)c2c3cc(ccc31)-c1cc(O)cc(c1)C[C@H](NC(=O)[C@H](C(C)C)N(C)C(=O)CN(C)C(=O)[C@@H]1N[C@@H]1C(C)C)C(=O)N1CCC[C@H](N1)C(=O)OCC(C)(C)C2"
measured_metric = "pIC50"
test_result = "> 8.00"


Query: pIC50; subject: CCn1c(-c2cccnc2[C@H](C)OC)c2c3cc(ccc31)-c1cc(O)cc(c1)C[C@H](NC(=O)[C@H](C(C)C)N(C)C(=O)CN(C)C(=O)[C@@H]1CN1CC1(C)COC1)C(=O)N1CCC[C@H](N1)C(=O)OCC(C)(C)C2 (stereo partly shown)
7.00 to 8.00

What about CCn1c(-c2cccnc2[C@H](C)OC)c2c3cc(ccc31)-c1cc(O)cc(c1)C[C@H](NC(=O)[C@H](C(C)C)N(C)C(=O)CN(C)C(=O)[C@H]1CN1C(C)C)C(=O)N1CCC[C@H](N1)C(=O)OCC(C)(C)C2 (stereo partly shown) ?
6.00 to 7.00

Same for CCn1c(-c2cccnc2[C@H](C)OC)c2c3cc(ccc31)-c1cc(O)cc(c1)C[C@H](NC(=O)[C@H](C(C)C)N(C)C(=O)CN(C)C(=O)[C@@H]1N[C@@H]1C(F)(F)F)C(=O)N1CCC[C@H](N1)C(=O)OCC(C)(C)C2
7.00 to 8.00

Same read-out for CCn1c(-c2cccnc2[C@H](C)OC)c2c3cc(ccc31)-c1cc(O)cc(c1)C[C@H](NC(=O)[C@H](C(C)C)N(C)C(=O)CN(C)C(=O)[C@H]1N[C@H]1C1CCC1)C(=O)N1CCC[C@H](N1)C(=O)OCC(C)(C)C2 ?
7.00 to 8.00

And then CCn1c(-c2cccnc2[C@H](C)OC)c2c3cc(ccc31)-c1cc(O)cc(c1)C[C@H](NC(=O)[C@H](C(C)C)N(C)C(=O)CN(C)C(=O)[C@H]1CN1C1COC1)C(=O)N1CCC[C@H](N1)C(=O)OCC(C)(C)C2 (stereo partly shown) , what is it?
6.00 to 7.00

Follow-up entry: CCn1c(-c2cccnc2[C@H](C)OC)c2c3cc(ccc31)-c1cc(O)cc(c1)C[C@H](NC(=O)[C@H](C(C)C)N(C)C(=O)CN(C)C(=O)[C@@H]1N[C@@H]1C1CCC1)C(=O)N1CCC[C@H](N1)C(=O)OCC(C)(C)C2
7.00 to 8.00

Source listed as patent US20230233569A1.
